- target-or-system: T1, BAFF (ACROBiosystems, BAF-H5248) (UniProt Q9Y275 134-285)
- T1 construct: Bought protein used in the ELISA with coated test sample
- procedure-summary: ELISA, fusion protein coated, BAFF titrated, Anti-His-HRP
- Protocol: The binding activity of the TACI fusion proteins for BAFF and APRIL was assayed by the ELISA method (coating a test fusion protein sample). The specific procedures were as follows: The test sample was diluted to 2 μg/mL with a PBS (BasalMedia, B320) buffer at pH 7.4 and added to a 96-well microplate (Corning, 3590) at 100 μL/well. The plate was incubated at 4° C. overnight. […]
measured-parameter: EC50 (nM)

| binder | value-units | observed-value |
| --- | --- | --- |
| TACI-9-15Fc9 fusion protein (Fc fusion, Full-length chain) STSCREEQGEFYDHLLRDCISCASICGQHPKQCAAFCEEPKSSDKTHTCPPCPAPEAEGAPSVFLFPPKPKDTLMISRTPEVTCVVVDVSHEDPEVKFNWYVDGVEVHNAKTKPREEQYNSTYRVVSVLTVLHQDWLNGKEYKCKVSNKALPSSIEKTISKAKGQPREPQVYTLPPSRDELTKNQVSLTCLVKGFYPSDIAVEWESNGQPENNYKTTPPVLDSDGSFFLYSKLTVDKSRWQQGNVFSCSVMHEALHNHYTQKSLSLSPGGGGSSTSCREEQGEFYDHLLRDCISCASICGQHPKQCAAFCESS | nM | 8.94 |
